Listed below: Percent Effect values for each entry.
Target: Ubiquitin-activating enzyme e1, putative (Leishmania donovani (strain BPK282A1)) (UniProt E9BSI1)
Sequence (E9BSI1 as listed by the source): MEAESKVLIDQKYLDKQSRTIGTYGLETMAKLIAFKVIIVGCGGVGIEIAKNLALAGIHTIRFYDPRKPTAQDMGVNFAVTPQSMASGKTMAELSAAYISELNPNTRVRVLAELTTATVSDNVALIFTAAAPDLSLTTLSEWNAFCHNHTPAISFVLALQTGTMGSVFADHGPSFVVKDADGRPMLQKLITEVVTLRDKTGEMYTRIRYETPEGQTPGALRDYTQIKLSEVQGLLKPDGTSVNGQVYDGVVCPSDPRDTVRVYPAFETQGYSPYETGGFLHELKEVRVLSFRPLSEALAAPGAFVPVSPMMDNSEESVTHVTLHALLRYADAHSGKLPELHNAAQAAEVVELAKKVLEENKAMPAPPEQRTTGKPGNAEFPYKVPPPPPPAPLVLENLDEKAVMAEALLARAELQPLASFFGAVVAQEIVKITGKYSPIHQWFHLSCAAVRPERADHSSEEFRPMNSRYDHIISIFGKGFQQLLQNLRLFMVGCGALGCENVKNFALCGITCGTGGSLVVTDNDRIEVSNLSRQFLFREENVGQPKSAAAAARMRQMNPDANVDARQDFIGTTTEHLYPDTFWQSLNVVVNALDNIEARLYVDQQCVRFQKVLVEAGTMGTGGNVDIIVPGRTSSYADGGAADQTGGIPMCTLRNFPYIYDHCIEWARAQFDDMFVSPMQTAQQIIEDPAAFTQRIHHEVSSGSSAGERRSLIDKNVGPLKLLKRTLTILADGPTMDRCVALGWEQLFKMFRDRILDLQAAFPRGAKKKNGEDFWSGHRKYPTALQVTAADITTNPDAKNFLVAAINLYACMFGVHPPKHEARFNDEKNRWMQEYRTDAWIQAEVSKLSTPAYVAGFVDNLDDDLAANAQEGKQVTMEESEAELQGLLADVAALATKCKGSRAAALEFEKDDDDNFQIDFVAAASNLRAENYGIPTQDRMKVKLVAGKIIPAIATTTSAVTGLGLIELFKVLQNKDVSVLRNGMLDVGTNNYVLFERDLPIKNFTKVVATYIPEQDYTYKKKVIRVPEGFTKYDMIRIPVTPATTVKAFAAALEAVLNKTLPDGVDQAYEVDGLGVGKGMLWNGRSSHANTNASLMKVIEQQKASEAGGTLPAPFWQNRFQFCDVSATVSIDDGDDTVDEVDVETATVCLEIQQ
Test: Leishmania donovani Ubiquitin Activating Enzyme (LdE1)
Format: functional
Design: scale not given: direction of the effect not stated beside the values
Conditions: 30 µM
Results with a measured potency or affinity are listed apart.
Respond numerically; units are % and should not be typed.

CCOCCC(=O)N1CCCC(c2ncc[nH]2)C1 (stereo not given)	2.74
C=C1c2ccccc2C(=O)N1CCC(=O)N1CCNC(=O)C1	15.8
Cc1nc(-c2ccccc2)sc1C(=O)NCCNc1ncccn1	-2.63
CC(NC(=O)CNCCn1cccn1)c1ccc2c(c1)OCCO2 (stereo not given)	-7.79

Turning to the following molecule.
Summary for this molecule, O=C(NCC1CC1)C1CN(C(=O)c2cccnc2)CC12CCOCC2 (stereo not given) : Percent Effect is 13

Cited source: ChEMBL document CHEMBL3988442
